Consider the following variants and their measured polymerase ribozyme fitness (log ratio) readings.
B1: TPR 5TU (parent)
chain: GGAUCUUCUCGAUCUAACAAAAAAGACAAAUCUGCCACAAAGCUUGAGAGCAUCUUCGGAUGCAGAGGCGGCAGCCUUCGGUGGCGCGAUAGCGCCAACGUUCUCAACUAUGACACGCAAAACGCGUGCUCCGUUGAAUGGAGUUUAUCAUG

Variants of: B1
Assay: polymerase ribozyme fitness, log enrichment relative to wild type (log ratio); higher = more active; in vitro selection for triplet polymerase activity
This sample holds only a part of the variants without activity.
Output spec: single numeric token, no unit.

U53A A60G C96U A106U U139G: -2.41
C36U U44A A122C: -4.15

IN: What polymerase ribozyme fitness (log ratio) value was documented for this variant, C69A ?
OUT: -1.57

IN: What polymerase ribozyme fitness (log ratio) value was documented for this variant, C38U A40C G80U C95U ?
OUT: -1.06

IN: What polymerase ribozyme fitness (log ratio) value was documented for this variant, A52C C75U A97U U109G C114A ?
OUT: -3.53
